Listed here: items and their measured TGI.
System: NCI/ADR-RES ovarian
Experiment: NCI tumour cell line growth inhibition, 48 h
reported metric: TGI

O=c1cc(-c2ccccc2)oc2c(-c3cc(Cl)cc4c(=O)cc(-c5ccccc5)oc34)cc(Cl)cc12; > 100 µM
COc1cc2c(cc1Cc1c(F)cccc1Cl)nc(-c1c(F)cccc1Cl)n2Cc1c(F)cccc1Cl; > 100 µM
NC(=O)N/N=C1\CC2C3CC4C2C4C13 (stereo not given); > 100 µM
COc1c(O)c2c(=O)cc(OC)c3c4c(OC)cc(=O)c5c(O)c(OC)c6c(c(c1C(C(C)O)C6C(C)O)c23)c54 (stereo not given); 3.66 µM
Nc1nn2c(=O)c3ccccc3nc2s1; > 100 µM
O=C1CSC2=NC3=C(COC/C3=C\c3ccc(Br)cc3)C(c3ccc(Br)cc3)N12 (stereo not given); > 100 µM
CC12CCCC3(CC(=O)C(C)(C)C3C(=O)C1)C2 (stereo not given); > 100 µM
O=C(C(Cl)=C(N1CCOCC1)N1CCOCC1)C(Cl)Cl; > 100 µM
CC(=O)O[C@H]1CCc2c(cc(N)c3c2C(=O)C[C@]2(C)C([C@H](C)CCCC(C)C)CCC32C)C1(C)C (stereo not given in full); > 100 µM
O=S(=O)(NCCCNc1nccc(-c2c(-c3ccc(F)cc3)nc3sccn23)n1)c1ccc2ccccc2c1; > 100 µM
CC(=O)c1ccc(O)c(CN(C2CCCCC2)C2CCCCC2)c1O; > 100 µM
COc1ccc(N(C(=O)Nc2ccc(Cl)c(Cl)c2)C2c3cccn3C(=O)N2c2ccc(Cl)c(Cl)c2)cc1 (stereo not given); > 100 µM
O=c1c(F)cn(Cc2ccccc2CCl)c(=O)n1Cc1ccccc1CCl; 11.8 µM
C[C@]12CC[C@@H]3c4cc(I)c(O)cc4CC[C@H]3[C@@H]1CC[C@@H]2O; > 78.2 µM
CC(=O)c1cnc2oc3ccc(O)cc3c2c1-c1ccccc1; 75 µM

----------
System: HCT-15 colon
Assay: NCI tumour cell line growth inhibition, 48 h
reported metric: TGI

COc1ccc2[nH]c3c(c2c1)[C@H](C)C[C@@H]1C(=O)N(c2ccccc2)C(=O)[C@H]31; > 100 µM
c1c[nH]c(CN2CCOCC2)n1; > 100 µM
CCC(C(=O)C(=O)OC)P1(=O)OC(C)(C)CN1C(C)(C)C (stereo not drawn); > 100 µM
CC(=O)c1cnc2oc3ccc(O)cc3c2c1-c1ccccc1; > 100 µM
CC(=O)/C(=C/c1ccccc1F)C(=O)c1ccccc1; > 100 µM
CN(C)CCNC(=O)Cn1ccc(=O)c2c([N+](=O)[O-])cccc21; > 100 µM
CC(C)(C)OC(=O)NCCCCCCCn1c2c(c3ccccc3c1=O)C(=O)c1ccccc1-2; > 100 µM
CSc1n[nH]c(N)c1C(=O)Nc1ccccc1; > 100 µM
CC(C)CCC1(CCN)C(=O)NC(=O)NC1=O; > 100 µM
COc1ccc(CN2C3CC2CN(c2ccc(-c4cc(OCC(C)(C)O)cn5ncc(C#N)c45)cn2)C3)cn1; > 100 µM
COc1ccc(-c2cc(-c3ccccc3)[nH]c(=S)c2C#N)cc1; > 100 µM
C[N+](C)(C)CC1CCCCC1O (stereo not drawn); > 100 µM
Cc1c2ccccc2cc2ccc3oc([N+](=O)[O-])cc3c12; > 100 µM
COc1ccc(C2c3cc4c(cc3OC(N3CCOCC3)C2C)OCO4)c(OC)c1OC (stereo not drawn); > 100 µM
CC(=O)O[C@H]1CCc2c(cc(N)c3c2C(=O)C[C@]2(C)C([C@H](C)CCCC(C)C)CCC32C)C1(C)C (stereo partly drawn); > 100 µM
COC1=C(C)C(=O)c2c(c(COC(N)=O)c3n2CC(OC(C)=O)C3OC(C)=O)C1=O (stereo not drawn); 0.0692 µM
CN(C)C(=O)O[C@H]1CN[C@H](C#Cc2cc3ncnc(Nc4ccc(OCc5cccc(F)c5)c(Cl)c4)c3s2)C1; > 25 µM
C=C(CNCCc1ccc(O)cc1)[C@@H]1CC[C@]2(COC3CCCCO3)CC[C@]3(C)[C@H](CC[C@@H]4[C@@]5(C)CCC(NCCO)C(C)(C)[C@@H]5CC[C@]43C)[C@@H]12 (stereo partly drawn); 1.49 µM
CC(=O)OC(Cn1cncn1)(Cn1cncn1)c1ccc(Cl)cc1Cl; > 100 µM
CCCCN(CC)CC(C(C)=O)c1c(O)c2ccccc2oc1=O (stereo not drawn); > 100 µM
Cc1ccc(NC(=O)c2cc(S(=O)(=O)N3C(=O)NC(=O)NS3(=O)=O)c(S)cc2Cl)cc1; > 100 µM
Nc1ncnc2c1ncn2CC(O)CO (stereo not drawn); > 100 µM
O=C(N[C@@H](C[Se][Se]C[C@H](NC(=O)c1ccc(Br)cc1F)C(=O)O)C(=O)O)c1ccc(Br)cc1F; > 100 µM
CCOC(=O)/C=C(\C(=O)OCC)n1ccc(=O)n(Cc2cn(COCCOC(C)=O)nn2)c1=O; 38 µM
O=c1cc(N2CCCC2)[nH]c(=O)n1-c1ccccc1; > 100 µM
COc1cnc2c(c1)C(=O)c1c-2n(CCCN2CCN(C)CC2)c(=O)c2cc([N+](=O)[O-])ccc12; 1.26 µM
COc1ccc(C(=O)c2ccc([As]=O)cc2)cc1 (stereo not drawn); 0.11 µM
CCCCCCCCCc1nn2c(Cc3ccccc3)nnc2s1; 35.4 µM
N#Cc1nc(C2CCC2)oc1N; > 100 µM
COC(=O)C1(C(=O)OC)CC(=O)c2cc3c(cc2-c2c(cc(OC)c(OC)c2OC)C1)OCO3; > 211 µM
Cc1ccc(-c2nc3nc(-c4ccc(F)cc4)nc(N4CCCNCC4)c3o2)cc1; 2.42 µM
CC(C)(Oc1ccc(/C=C/C(=O)c2ccc(Cl)cc2)cc1)C(=O)Nc1c(Cl)cccc1Cl; 29.3 µM
Oc1[nH]c2ccccc2c1N=NC(=S)Nc1ccc(Cl)cc1; > 100 µM
CCOP(=O)(/C=C\n1ccc(N)nc1=O)OCC; > 100 µM
COc1ccc(CN2CCC/C=C/CC(Cl)(Cl)C2=O)cc1; > 100 µM
COc1cc2ccc1OCc1cccc(n1)COc1ccc(cc1OC)C=Nc1ccc(cc1)N=C2; > 100 µM
OCc1ccc2c(c1)CC1(Cc3ccc(/C=N/O)cc3C1)C2 (stereo not drawn); > 45.1 µM
COc1cc(NCCCCCCCNC(C)C)c2nccc(C)c2c1; 27.3 µM

----------
Tested on: UACC-62 melanoma
Test: NCI tumour cell line growth inhibition, 48 h
reported metric: TGI

N#Cc1nc(C2CCC2)oc1N; > 100 µM
CC(C)(C)OC(=O)NCCCCCCCn1c2c(c3ccccc3c1=O)C(=O)c1ccccc1-2; 72.8 µM
CCNC(=O)c1noc(-c2cc(C(C)C)c(O)cc2O)c1-c1ccc(CN2CCOCC2)cc1; 4.92 µM
CN1CCN(c2cc3nsnc3c3nsnc23)CC1; > 10 µM
N#Cc1ccc(NC(=O)C(CC(=O)OCc2ccccc2)NC(=O)OCc2ccccc2)cc1 (stereo unspecified); > 100 µM
CC(NC(=O)N(C)C)NC(=O)N(C)C; > 10 µM
COc1ccc(/C(=N\NC(=S)NN)C(c2ccc(OC)cc2)C2C(=O)Oc3ccccc32)cc1 (stereo unspecified); > 100 µM
O=c1cc(/C=C/c2ccccc2)[nH]c2cc3c(cc12)OCO3; 10.1 µM
CCCCCCCCCCCCCCCC[N+]1(C)CCOCC1; 3.83 µM
N#CNC(N)=Nc1ccc(Cl)cc1; > 100 µM
COc1cc(/C=C/C=C2\CC/C(=C\C=C\c3ccc(O)c(OC)c3)C2=O)ccc1O; > 100 µM

----------
Tested on: NCI-H522 lung
Assay: NCI tumour cell line growth inhibition, 48 h; in the data active = GI50 below about 0.43 µM; inactive = the rest
Outcomes: active, inactive

O=C1OCC2=C1C(c1ccccc1)c1cc3c(cc1N2CCO)OCO3 (centres undefined); inactive
C=C1C(=O)O[C@H]2[C@H]1CC/C(C=Nc1c(N)cc(C(F)(F)F)cc1Br)=C\CC[C@@]1(C)O[C@@H]21; inactive
COc1ccc(CN2C3CC2CN(c2ccc(-c4cc(OCC(C)(C)O)cn5ncc(C#N)c45)cn2)C3)cn1; inactive
CCNC(=O)c1noc(-c2cc(C(C)C)c(O)cc2O)c1-c1ccc(CN2CCOCC2)cc1; active
O=C1CCCCN1CCCCC#Cc1cccc(C#Cc2cccnc2)c1; inactive
O=C(Nc1ccc(Cl)c(Cl)c1)NS(=O)(=O)c1cnccc1Oc1ccc(F)cc1; inactive
CN(C)C(=O)O[C@H]1CN[C@H](C#Cc2cc3ncnc(Nc4ccc(OCc5cccc(F)c5)c(Cl)c4)c3s2)C1; inactive
CC(C)(C)OC(=O)NCCCCCCCn1c2c(c3ccccc3c1=O)C(=O)c1ccccc1-2; inactive
c1ccc2[nH]c(-c3ccc(Nc4nc(N5CCCCC5)nc(N5CCOCC5)n4)cc3)nc2c1; inactive
